All figures here come from the supplement of paper PMC11451515.

test system: P12-Ichikawa; assay: cell viability relative to DMSO control; higher = less cytotoxic; conditions: RPMI 5 mM glucose + 10% dialyzed FBS; 48 h; 0.0211 µM
Entries and their cell viability
Write the value in % as a bare number.

Example results:
[
  {
    "compound": "N#C/C(=C1/Nc2ccccc2S1)c1ccnc(OCc2ccc(CN3CCOCC3)cc2)n1",
    "result_units": "%",
    "cell viability": 93.1
  },
  {
    "compound": "Cc1ccc([S+](=O)([O-])Nc2cc(Cl)ccc2C(=O)Nc2nc(-c3ccccc3)cs2)cc1",
    "result_units": "%",
    "cell viability": 123
  },
  {
    "compound": "CN(C(Cc1ccc(O[S+](=O)([O-])c2cccc3cnccc23)cc1)C(=O)N1CCN(c2ccccc2)CC1)[S+](=O)([O-])c1cccc2cnccc12 (stereo not drawn)",
    "result_units": "%",
    "cell viability": 121
  }
]

Ask: Please report the measured cell viability for COC(=O)Nc1nc2ccc([S+]([O-])c3ccccc3)cc2[nH]1 (stereo not drawn)
Result: 118

Ask: Please report the measured cell viability for N=C(N)Nc1ccc(C(=O)Oc2ccc3cc(C(=N)N)ccc3c2)cc1
Result: 83.4

Ask: Please report the measured cell viability for CCOC(=O)O[C@]1(C(=O)OCCl)CC[C@H]2[C@@H]3CCC4=CC(=O)C=C[C@]4(C)[C@H]3[C@@H](O)C[C@@]21C
Result: 98.3

Ask: Please report the measured cell viability for Nc1nc(N)c(N=O)c(OCC2CCCCC2)n1
Result: 86.9

Ask: Please report the measured cell viability for CC(C)n1cnc2c(NCCc3ccc(O)cc3)nc(-c3csc4ccccc34)nc21
Result: 112

Ask: Please report the measured cell viability for CC(C)c1c(C(=O)Nc2ccccc2)c(-c2ccccc2)c(-c2ccc(F)cc2)n1CC[C@@H](O)C[C@@H](O)CC(=O)[O-]
Result: 92

Ask: Please report the measured cell viability for NC[C@H]1O[C@H](O[C@H]2[C@H](O)[C@@H](O[C@H]3O[C@H](CO)[C@@H](O)[C@H](N)[C@H]3O)[C@H](N)C[C@@H]2N)[C@H](N)C[C@@H]1O
Result: 119

====

system: SEM cells; test: cell viability relative to DMSO control; higher = less cytotoxic; settings: RPMI 5 mM glucose + 10% dialyzed FBS; 48 h; 46.1 µM
Entries and their cell viability
Write the value in % as a bare number.

Example results:
[
  {
    "compound": "NNc1nncc2ccccc12",
    "experimental_target": "SEM cells",
    "observed_result": 158
  },
  {
    "compound": "N#Cc1ccnc(N2C(=O)CC[C@H]2C(=O)N(c2cncc(F)c2)[C@H](C(=O)NC2CC(F)(F)C2)c2ccccc2Cl)c1",
    "experimental_target": "SEM cells",
    "observed_result": 17.9
  },
  {
    "compound": "Cc1cnc(Nc2ccc(N3CCN(C)CC3)cc2)nc1Nc1cccc([S+](=O)([O-])NC(C)(C)C)c1",
    "experimental_target": "SEM cells",
    "observed_result": 3.71
  },
  {
    "compound": "CS[C@H]1SC[C@@H]2C(=O)N(C)[C@H](C(C)C)C(=O)OC[C@H](NC(=O)c3cnc4ccccc4n3)C(=O)N[C@H](C)C(=O)N(C)[C@H]1C(=O)N(C)[C@H](C(C)C)C(=O)OC[C@H](NC(=O)c1cnc3ccccc3n1)C(=O)N[C@H](C)C(=O)N2C",
    "experimental_target": "SEM cells",
    "observed_result": 5.52
  },
  {
    "compound": "Cc1cnc(Nc2ccc(CN3CCOCC3)cc2)nc1Nc1cccc([S+](=O)([O-])NC(C)(C)C)c1",
    "experimental_target": "SEM cells",
    "observed_result": 2.01
  },
  {
    "compound": "C[C@H](NCc1ccc(OCc2cccc(F)c2)cc1)C(N)=O",
    "experimental_target": "SEM cells",
    "observed_result": 13.2
  },
  {
    "compound": "COc1cc2ncnc(Nc3cccc(Cl)c3)c2cc1OC",
    "experimental_target": "SEM cells",
    "observed_result": 3.77
  },
  {
    "compound": "Cc1ccc([S+](=O)([O-])Nc2cc(Cl)ccc2C(=O)Nc2nc(-c3ccccc3)cs2)cc1",
    "experimental_target": "SEM cells",
    "observed_result": 32.3
  }
]

Ask: Please report the measured cell viability for N=C(N)Nc1ccc(C(=O)Oc2ccc3cc(C(=N)N)ccc3c2)cc1
Result: 80.4

Ask: Please report the measured cell viability for OC[C@H]1OC(OC2=CC3=C(C(=C2)O)C(=O)\C(=C/O3)C4=CC=C(O)C=C4)[C@H](O)[C@@H](O)[C@@H]1O (stereo partly specified)
Result: 95.8

Ask: Please report the measured cell viability for COc1ccc(C2(C#N)CCC(C(=O)O)CC2)cc1OC1CCCC1 (stereo unspecified)
Result: 96.3

Ask: Please report the measured cell viability for COc1ccc(-c2oc3cc(OC)ccc3c2C(=O)c2ccc(C#N)cc2)cc1
Result: 136

Ask: Please report the measured cell viability for CC[C@@H]1C(=O)N(C)c2cnc(Nc3ccc(C(=O)NC4CCN(C)CC4)cc3OC)nc2N1C1CCCC1
Result: 3.08

Ask: Please report the measured cell viability for CCOC(=O)O[C@]1(C(=O)OCCl)CC[C@H]2[C@@H]3CCC4=CC(=O)C=C[C@]4(C)[C@H]3[C@@H](O)C[C@@]21C
Result: 92

Ask: Please report the measured cell viability for NC\1=N\C(=O)N(\C=C1F)[C@H]2C[C@H](O)[C@@H](CO)O2
Result: 28.5

Ask: Please report the measured cell viability for N#C/C(=C1/Nc2ccccc2S1)c1ccnc(OCc2ccc(CN3CCOCC3)cc2)n1
Result: 87.8

====

system: SEM cells; test: cell viability relative to DMSO control; higher = less cytotoxic; settings: RPMI 5 mM glucose + 10% FBS; 48 h; 46.1 µM
readout_label: cell viability (%)
Write the value in % as a bare number.

Example results:
[
  {
    "compound": "C[C@@H](N)C1CC[C@@H](CC1)C(=O)NC2=CC=NC=C2 (some centres undefined)",
    "experimental_target": "SEM cells",
    "result_units": "%",
    "cell viability": 113
  },
  {
    "compound": "CN(C)CCc1c[nH]c2ccc(C[S+](=O)([O-])N3CCCC3)cc12",
    "experimental_target": "SEM cells",
    "result_units": "%",
    "cell viability": 67.4
  },
  {
    "compound": "Oc1c(Cl)cc(Cl)c2cccnc12",
    "experimental_target": "SEM cells",
    "result_units": "%",
    "cell viability": 7.14
  },
  {
    "compound": "CN(C)CCOc1ccc(/C(=C(/CCCl)c2ccccc2)c2ccccc2)cc1",
    "experimental_target": "SEM cells",
    "result_units": "%",
    "cell viability": 11.9
  },
  {
    "compound": "C[C@H]1Oc2cc(cnc2N)-c2c(nn(C)c2C#N)CN(C)C(=O)c2ccc(F)cc21",
    "experimental_target": "SEM cells",
    "result_units": "%",
    "cell viability": 60.3
  }
]

Ask: Please report the measured cell viability for Oc1ccc2ccccc2c1SSc1c(O)ccc2ccccc12
Result: 30

Ask: Please report the measured cell viability for CCC(C1CCC(C)C(O1)C(C)C(O)C(C)C(=O)C(CC)C2OC\3(O[C@]4(CC[C@@](C)(O4)C5CC[C@@](O)(CC)C(C)O5)C(O)\C=C3)C(C)CC2C)C([O-])=O (some centres undefined)
Result: 10.4

Ask: Please report the measured cell viability for CCc1cc(-c2n[nH]c(C)c2-c2ccc3c(c2)OCCO3)c(O)cc1O
Result: 25.2

Ask: Please report the measured cell viability for COc1cc2ncn(-c3cc(OCc4ccccc4C(F)(F)F)c(C(N)=O)s3)c2cc1OC
Result: 13.1

====

Entries and their cell viability
tested on: P12-Ichikawa; assay: cell viability relative to DMSO control; higher = less cytotoxic; conditions: RPMI 5 mM glucose + 10% dialyzed FBS; 48 h; 0.0632 µM
Write the value in % as a bare number.

Example results:
[
  {
    "compound": "CC(S)C(=O)NCC(=O)O (stereo not given)",
    "experimental_target": "P12-Ichikawa",
    "readout_label": "cell viability",
    "observed_result": 112
  },
  {
    "compound": "CN(C)[C@@H](CCOc1cccc2ccccc12)c1ccccc1",
    "experimental_target": "P12-Ichikawa",
    "readout_label": "cell viability",
    "observed_result": 115
  },
  {
    "compound": "O=C1CCCC(=O)C1C(=O)c1ccc(C(F)(F)F)cc1[N+](=O)[O-]",
    "experimental_target": "P12-Ichikawa",
    "readout_label": "cell viability",
    "observed_result": 115
  },
  {
    "compound": "CN(C(Cc1ccc(O[S+](=O)([O-])c2cccc3cnccc23)cc1)C(=O)N1CCN(c2ccccc2)CC1)[S+](=O)([O-])c1cccc2cnccc12 (stereo not given)",
    "experimental_target": "P12-Ichikawa",
    "readout_label": "cell viability",
    "observed_result": 109
  },
  {
    "compound": "C[C@H](Cc1ccc(O)c(O)c1)[C@@H](C)Cc1ccc(O)c(O)c1",
    "experimental_target": "P12-Ichikawa",
    "readout_label": "cell viability",
    "observed_result": 124
  },
  {
    "compound": "NC(CO)C(=O)NNCc1ccc(O)c(O)c1O (stereo not given)",
    "experimental_target": "P12-Ichikawa",
    "readout_label": "cell viability",
    "observed_result": 96.5
  },
  {
    "compound": "N#Cc1ccnc(N2C(=O)CC[C@H]2C(=O)N(c2cncc(F)c2)[C@H](C(=O)NC2CC(F)(F)C2)c2ccccc2Cl)c1",
    "experimental_target": "P12-Ichikawa",
    "readout_label": "cell viability",
    "observed_result": 97.5
  },
  {
    "compound": "CCCCc1nc2cc(/C=C/C(=O)NO)ccc2n1CCN(CC)CC",
    "experimental_target": "P12-Ichikawa",
    "readout_label": "cell viability",
    "observed_result": 100
  },
  {
    "compound": "CN(C)CCOc1ccc(/C(=C(/CCCl)c2ccccc2)c2ccccc2)cc1",
    "experimental_target": "P12-Ichikawa",
    "readout_label": "cell viability",
    "observed_result": 109
  },
  {
    "compound": "Cc1cnc(Nc2ccc(N3CCN(C)CC3)cc2)nc1Nc1cccc([S+](=O)([O-])NC(C)(C)C)c1",
    "experimental_target": "P12-Ichikawa",
    "readout_label": "cell viability",
    "observed_result": 106
  }
]

Ask: Please report the measured cell viability for CCOC(=O)[C@H]1O[C@@H]1C(=O)N[C@@H](CC(C)C)C(=O)NCCC(C)C
Result: 124

Ask: Please report the measured cell viability for O=C1N\C=N/C2=C1C=N[NH]2
Result: 78.7

Ask: Please report the measured cell viability for CN(C)CCc1c[nH]c2ccc(C[S+](=O)([O-])N3CCCC3)cc12
Result: 113

Ask: Please report the measured cell viability for Nc1nc(N)c(N=O)c(OCC2CCCCC2)n1
Result: 100
